B1: PPP2R2B (parent)
chain: RNTKRDVTLEASRENSKPRAILKP

variants of: B1; test: protein stability index of a GFP-peptide fusion (GPS, HEK-293T) (PSI 1-6); higher = more stable; conditions: c terminus: a fixed tail appended;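 also: lentivirally expressed fusions sorted by FACS into six bins by GFP to DsRed ratio, PSI derived from sequencing read proportions per bin multiplied by bin number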
quantity: protein stability index
Answer using only a numeral; do not append any unit.

1) RNTKRDVTLEASRENSKPRYILKP [A20Y] ... 4.1

Which protein stability index value is on record for RNLKRDVTLEASRENSKPRAILKP [T3L] ? 4.64

Ref: the supplement of paper PMC10567573
